FYI, the data here is from PubChem BioAssay (EPA / NIEHS).

# Read-out: Vascular endothelial growth factor receptor 2 (Homo sapiens) (UniProt P35968)
# protocol_notes: BSK_4H_VEGFRII: BioMAP Diversity Plus: 4H Assay for Vascular endothelial growth factor receptor 2 (VEGFR2) Biomarker Activity (AID 2283031)
# experimental_parameters: primary human endothelial cells (HUVEC); actives raise or lower the signal
Calls of active or inactive are those of the source. How the source made its calls: active means hit-call score of the fitted dose curve at least 0.9, where 1 is the maximum; inactive means score below 0.9.
Answer with one of the outcomes given here: TRUE for active, FALSE for inactive

{"columns": ["compound", "discrete_label"],
 "data": [
  ["Cc1c(O)cccc1O", "FALSE"],
  ["Fc1ccc(Br)cc1", "FALSE"]
]}

input: Kindly provide the recorded test outcome for the following compound: c1ccc2c(c1)[nH]c1ccccc12
output: FALSE

input: Another compound to look at: Clc1cc(Cl)c(Cl)c(Cl)c1Cl
output: FALSE

input: Another compound to look at: CCCCCC1=CCCC1=O
output: FALSE

input: Another compound to look at: C1CNCCN1
output: FALSE

input: Another compound to look at: C=CC(=O)OCCCCCCOC(=O)C=C
output: TRUE
